- test name: Primary qHTS for inhibitors of nuclear receptor binding SET domain protein 2 (NSD2) in an RCH-ACV wild type WT cells (2C) (AID 1645877); also: nearly all actives have a fitted effect of over 70% in size; as to activity change, negative = cell killing: % is scaled to controls: 0 for no effect and ±100 for the full control effect
- condition details: RCH-ACV (leukaemia line) NSD2 WT (2C) viability, CellTiter-Glo, 72 h; series mostly up to 44.9 µM
Records with an inconclusive call do not appear. Calls of active or inactive are those of the source. Calls follow the shape of the dose curve; as a rule, active = well fitted inhibition curve with a large enough effect; inconclusive = small, poorly fitted or top-dose-only effect; inactive = no such curve, though single readings can be large or run the other way. Where a SMILES comes first, the peptide text is derived from it.
property label: activity change, negative = cell killing

O=C(Nc1ccc(N2CCC(C(=O)N3CCOCC3)CC2)cc1)c1cnc(Oc2ccccc2)nc1	inactive
CC1=C2C3OC(=O)C(C)C3(O)CCC2(C)CCC1 (configuration not stated)	inactive
C=C1CC[C@]2(C(=O)O[C@@H]3O[C@H](CO)[C@@H](O)[C@H](O)[C@H]3O)CC[C@]3(C)C(=CCC4[C@@]5(C)C[C@H](O)[C@@H](O[C@@H]6O[C@H](C(=O)O)[C@@H](O)[C@H](O)[C@H]6O)[C@](C)(C=O)C5CC[C@]43C)C2C1 (some centres not stated)	-2.63% [at 9.23 µM] (inactive)
O=C(O)CCc1ccc(NCc2cccc3c2CCCN3CCOc2ccccc2)cc1F	inactive
C[C@@H]1O[C@@H](O[C@H]2[C@H](O)[C@@H](O)[C@H](OC(=O)[C@]34CCC(C)(C)C[C@H]3C3=CCC5[C@@]6(C)CC[C@H](O[C@@H]7O[C@H](C(=O)O)[C@@H](O)[C@H](O)[C@H]7O)C(C)(C)C6CC[C@@]5(C)[C@]3(C)CC4)O[C@@H]2CO)[C@H](O)[C@H](O)[C@H]1O (some centres not stated)	-1.6% [at 9.23 µM] (inactive)

State recorded activity change, negative = cell killing for all listed molecules.
1. CC1(C)CC[C@]2(C(=O)O)CC[C@]3(C)C(=CCC4[C@@]5(C)C[C@@H](O)[C@H](O)[C@](C)(CO)C5CC[C@]43C)[C@@H]2[C@@H]1O (some centres not stated)
2. CC(=O)NC(Cc1ccccc1)C(=O)NC(C(=O)O)C(C)C (stereo not drawn) (Ac-Phe-Val-OH; configuration not given here)

1. inactive
2. inactive

Where do the numbers come from? From PubChem BioAssay (NCATS).
